Each record here notes measured protein stability index.
B1: MGC27345 (parent)
chain: KYMPHLCQDSSGEVSCQCQLHPPR

variants of: B1; test: protein stability index of a GFP-peptide fusion (GPS, HEK-293T) (PSI 1-6); higher = more stable; settings: c terminus: a fixed tail appended;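 note: lentivirally expressed fusions sorted by FACS into six bins by GFP to DsRed ratio, PSI derived from sequencing read proportions per bin multiplied by bin number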
# output: bare number, no unit

variant_identifier=D9G measured_property="protein stability index" value_measured=2.56
variant_identifier=L6F measured_property="protein stability index" value_measured=1.59
variant_identifier=Q17L measured_property="protein stability index" value_measured=2.17
variant_identifier=K1Q measured_property="protein stability index" value_measured=2
variant_identifier=R24W measured_property="protein stability index" value_measured=2.89

Q: May I ask what protein stability index has been recorded for "Q8I" ?
A: 2.38

Q: Next up: "Q8G"
A: 2.42

Q: Next up: "Q19I"
A: 2.15

Q: Next up: "P23V"
A: 2.87

Q: Next up: "G12R"
A: 1.69
